Please respond with reported pKi for every item in the list.
# target system: human histamine H4 receptor (Homo sapiens, UniProt Q9H3N8)
# Construct: expressed in transfected cells; host or cells: SK-N-MC cells or COS7 cells, transiently transfected; cell membranes used
# Sequence (Q9H3N8 whole entry): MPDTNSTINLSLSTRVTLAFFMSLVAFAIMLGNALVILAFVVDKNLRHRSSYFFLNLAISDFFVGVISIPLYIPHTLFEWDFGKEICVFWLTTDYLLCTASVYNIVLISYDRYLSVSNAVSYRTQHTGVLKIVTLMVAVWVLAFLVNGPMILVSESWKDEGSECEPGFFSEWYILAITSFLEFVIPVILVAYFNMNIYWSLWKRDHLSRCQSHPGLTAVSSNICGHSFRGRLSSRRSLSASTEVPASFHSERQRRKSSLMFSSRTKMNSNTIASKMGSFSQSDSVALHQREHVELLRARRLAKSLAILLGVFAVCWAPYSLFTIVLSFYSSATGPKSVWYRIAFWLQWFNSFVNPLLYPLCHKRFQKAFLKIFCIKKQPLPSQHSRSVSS
# run description: Binding Assay on Recombinant Human Histamine H4 Receptor
# condition context: competition binding with 3H-histamine (5 nM), membranes of SK-N-MC or COS7 cells expressing human H4 receptor; Cheng-Prusoff, KD 5 nM; average of results obtained; read-out: Ki
Counter-ions that a name gives are not always drawn.
Numbers only, as −log10 of the molar value.

Solved cases (8 shown):
compound	pKi
CN[C@@H]1CCN(c2nc(N)nc3c2oc2ccc(Cl)cc23)C1 [Example 18]	9.38
OCCNc1nc(N2C[C@@H]3C[C@H]2CN3)c2oc3ccc(Cl)cc3c2n1 [Example 125]	6.24
CN[C@H]1CCN(c2nc(N)nc3c2sc2ccc(Cl)cc23)C1 [Example 65, trifluoroacetic acid salt]	7.00
CN1CCN(c2nc(N)nc3c2oc2cccc(F)c23)CC1 [Example 135, trifluoroacetic acid salt]	7.68
NCC1CCN(c2nc(N)nc3c2oc2ccc(Cl)cc23)C1 (stereo not drawn) [Example 29, trifluoroacetic acid salt]	6.85
COc1cccc2oc3c(N4CCNCC4)nc(N)nc3c12 [Example 86, trifluoroacetic acid salt]	7.33
CC(C)CNc1nc(N2CCN(C)CC2)c2oc3ccc(Cl)cc3c2n1 [Example 120]	5.48
COc1ccc2c(c1)sc1c(N3CCN(C)CC3)nc(N)nc12 [Example 159, trifluoroacetic acid salt]	6.74

Kindly give each listed record's pKi.
1. COc1ccc2oc3c(N4CCC[C@H](N)C4)nc(N)nc3c2c1 [Example 107, trifluoroacetic acid salt]
2. CN1CCN(c2nc(N)nc3c2sc2cc(C(F)(F)F)ccc23)CC1 [Example 54, trifluoroacetic acid salt]
3. CCN[C@@H]1CCN(c2nc(N)nc3c2oc2ccc(Cl)cc23)C1 [Example 73, trifluoroacetic acid salt]
4. CN(C)[C@@H]1CCN(c2nc(N)nc3c2oc2ccc(Cl)cc23)C1 [Example 24, trifluoroacetic acid salt]
5. C=CCNc1nc(N2CCN(C)CC2)c2oc3ccc(Cl)cc3c2n1 [Example 121]
6. CN[C@@H]1CCN(c2nc(N)nc3c2oc2ccc(Cl)c(Cl)c23)C1 [Example 99, trifluoroacetic acid salt]
7. CN1CCN(c2nc(NC3CC3)nc3c2oc2ccc(Cl)cc23)CC1 [Example 119]
8. Nc1nc(N2CC3CCCNC3C2)c2sc3cc(C(F)(F)F)ccc3c2n1 (stereo not drawn) [Example 58, trifluoroacetic acid salt]

Result:
[6.44, 6.36, 7.12, 8.26, 6.66, 8.00, 6.46, 6.52]

###

# target system: human histamine H4 receptor (Homo sapiens, UniProt Q9H3N8)
# Construct: expressed in transfected cells; host or cells: SK-N-MC cells or COS7 cells, transiently transfected; cell membranes used
# run description: Binding Assay on Recombinant Human Histamine H4 Receptor
# condition context: competition binding with 3H-histamine (5 nM), membranes of SK-N-MC or COS7 cells expressing human H4 receptor; Cheng-Prusoff, KD 5 nM; average of results obtained; read-out: Ki
Structures can show the parent of a compound that is named as a salt.
measured property: pKi
Give bare numbers, as −log10 of the molar value.

# count of solved cases: 3
molecule	target system	pKi
CN[C@@H]1CCN(c2nc(N)nc3c2oc2cccc(F)c23)C1 [Example 136, trifluoroacetic acid salt]	human histamine H4 receptor (Homo sapiens, UniProt Q9H3N8)	8.00
Nc1nc(N2CCN3CCCCC3C2)c2oc3ccccc3c2n1 (stereo not shown) [Example 36, trifluoroacetic acid salt]	human histamine H4 receptor (Homo sapiens, UniProt Q9H3N8)	6.17
Nc1nc(N2CCNCC2)c2oc3c(Cl)cc(Cl)cc3c2n1 [Example 31, trifluoroacetic acid salt]	human histamine H4 receptor (Homo sapiens, UniProt Q9H3N8)	6.85

Request: Which pKi is reported for this molecule? CN[C@@H]1CCN(c2nc(N)nc3c2oc2c(Cl)cc(Cl)cc23)C1 [Example 5, trifluoroacetic acid salt]
Result: 8.72
